Attribution: ChEMBL document CHEMBL4725306

Target Or Test System: PXR (Homo sapiens, UniProt O75469)
Sequence (O75469 whole entry): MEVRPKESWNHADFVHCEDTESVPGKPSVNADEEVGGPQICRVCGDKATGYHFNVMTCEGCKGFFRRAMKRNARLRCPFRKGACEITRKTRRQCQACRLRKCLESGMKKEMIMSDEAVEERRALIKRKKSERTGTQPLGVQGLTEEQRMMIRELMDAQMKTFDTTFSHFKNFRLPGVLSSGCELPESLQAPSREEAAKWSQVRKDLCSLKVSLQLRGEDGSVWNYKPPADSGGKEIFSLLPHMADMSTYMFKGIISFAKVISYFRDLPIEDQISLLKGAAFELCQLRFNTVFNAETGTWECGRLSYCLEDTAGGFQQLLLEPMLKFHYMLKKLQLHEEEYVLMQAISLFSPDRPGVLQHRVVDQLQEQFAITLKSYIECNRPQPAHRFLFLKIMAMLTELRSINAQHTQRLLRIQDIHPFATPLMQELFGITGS
Assay: Activation of PXR (unknown origin) relative to rifampicin
Condition Label: read-out: %max
Observation Type: Emax (%)
Give bare numbers, in %.

>  <Compound>
C[C@@]1(c2ccc(C(O)(C(F)(F)F)C(F)(F)F)cc2)CN(C(=O)NCc2ccccc2)C[C@@H]1c1ccccc1 (racemic)

>  <Emax [%]>
84

$$$$
>  <Compound>
C[C@]1(c2ccc(F)cc2)CN(C(=O)C2CCN(S(C)(=O)=O)CC2)C[C@H]1c1ccc(C(O)(C(F)(F)F)C(F)(F)F)cc1

>  <Emax [%]>
78

$$$$
>  <Compound>
CC(=O)N1CCC(C(=O)N2C[C@@H](c3ccc(C(O)(C(F)(F)F)C(F)(F)F)cc3)[C@@](C)(c3ccc(F)cc3)C2)CC1

>  <Emax [%]>
61

$$$$
>  <Compound>
COCC(=O)N1CCC(C(=O)N2C[C@@H](c3ccc(C(O)(C(F)(F)F)C(F)(F)F)cc3)[C@@](C)(c3ccc(F)cc3)C2)CC1

>  <Emax [%]>
52

$$$$

Turning now to a further compound:
QUERY: Please look up its Emax: C[C@]1(c2ccccc2)CNC[C@H]1c1ccc(C(O)(C(F)(F)F)C(F)(F)F)cc1 (racemic)
RESULT: 39
